Origin of the recorded values: the kinase profiling compilation of Christmann-Franck et al. (2016)

- System: RPS6KA1 KD1 KD2 (human) (UniProt Q15418)
- Sequence (Q15418 whole entry, looked up): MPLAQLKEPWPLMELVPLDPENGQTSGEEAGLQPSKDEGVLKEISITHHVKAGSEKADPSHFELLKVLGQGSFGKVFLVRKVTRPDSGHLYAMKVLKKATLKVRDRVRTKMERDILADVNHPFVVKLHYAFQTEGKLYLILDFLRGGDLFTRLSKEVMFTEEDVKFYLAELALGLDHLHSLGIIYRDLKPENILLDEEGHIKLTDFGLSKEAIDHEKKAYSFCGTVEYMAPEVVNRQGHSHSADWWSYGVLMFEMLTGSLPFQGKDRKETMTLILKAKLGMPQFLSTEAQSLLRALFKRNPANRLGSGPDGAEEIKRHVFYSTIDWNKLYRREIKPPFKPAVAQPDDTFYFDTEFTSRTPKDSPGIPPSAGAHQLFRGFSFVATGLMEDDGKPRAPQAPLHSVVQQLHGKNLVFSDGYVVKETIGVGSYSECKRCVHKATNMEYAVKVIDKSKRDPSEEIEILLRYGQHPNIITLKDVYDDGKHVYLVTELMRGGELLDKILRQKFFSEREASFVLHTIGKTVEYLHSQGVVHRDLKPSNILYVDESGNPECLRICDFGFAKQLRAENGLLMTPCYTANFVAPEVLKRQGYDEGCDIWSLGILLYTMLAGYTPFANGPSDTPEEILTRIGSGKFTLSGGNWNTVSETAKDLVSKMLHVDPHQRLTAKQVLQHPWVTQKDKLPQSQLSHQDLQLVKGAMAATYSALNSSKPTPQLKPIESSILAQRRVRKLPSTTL
- Experiment summary: radiometric filter-binding kinase assay, Kinase HotSpot
- Settings: compound 0.5 µM; ATP 10 µM
Quantity kind: residual activity (%)
Quick note: give the figure in %, leave out the unit.

For orientation, consider the following solved cases.
Input line: Test system RPS6KA1 KD1 KD2 (human) (UniProt Q15418); read-out residual activity; what value for `NC(=O)c1ccc(N(C(N)=O)c2c(F)cccc2F)nc1-c1ccc(F)cc1F` ?
Output line: 109

Input line: Test system RPS6KA1 KD1 KD2 (human) (UniProt Q15418); read-out residual activity; what value for `Nc1nc(Nc2ccc(S(N)(=O)=O)cc2)nn1C(=O)c1c(F)cccc1F` ?
Output line: 42.1

More entries:
Input line: Test system RPS6KA1 KD1 KD2 (human) (UniProt Q15418); read-out residual activity; what value for `CCN1/C(=C/C(C)=O)Sc2ccc(OC)cc21` ?
Output line: 94

Input line: Test system RPS6KA1 KD1 KD2 (human) (UniProt Q15418); read-out residual activity; what value for O=C(NC(NC(=S)Nc1ccc(F)c([N+](=O)[O-])c1)C(Cl)(Cl)Cl)C(c1ccccc1)c1ccccc1 (configuration not stated) ?
Output line: 105

Input line: Test system RPS6KA1 KD1 KD2 (human) (UniProt Q15418); read-out residual activity; what value for `CC(C)[C@H](CO)Nc1nc(Nc2cccc(Cl)c2)c2ncn(C(C)C)c2n1` ?
Output line: 77.3

Input line: Test system RPS6KA1 KD1 KD2 (human) (UniProt Q15418); read-out residual activity; what value for `Clc1ccc(Nc2nnc(Cc3ccncc3)c3ccccc23)cc1` ?
Output line: 113

Input line: Test system RPS6KA1 KD1 KD2 (human) (UniProt Q15418); read-out residual activity; what value for `CC(C)n1cnc2c(Nc3cccc(Cl)c3)nc(NCCO)nc21` ?
Output line: 69.1

Input line: Test system RPS6KA1 KD1 KD2 (human) (UniProt Q15418); read-out residual activity; what value for `Cc1cc2ncc(-c3ccccc3)nc2cc1C` ?
Output line: 99.2

Input line: Test system RPS6KA1 KD1 KD2 (human) (UniProt Q15418); read-out residual activity; what value for `O=c1cc(N2CCNCC2)oc2c(-c3ccccc3)cccc12` ?
Output line: 104

Input line: Test system RPS6KA1 KD1 KD2 (human) (UniProt Q15418); read-out residual activity; what value for `COc1ccc(-c2cnc3c(-c4ccsc4)cnn3c2)cc1` ?
Output line: 85.7

Input line: Test system RPS6KA1 KD1 KD2 (human) (UniProt Q15418); read-out residual activity; what value for `C#Cc1cccc(Nc2ncnc3cc(OCCOC)c(OCCOC)cc23)c1` ?
Output line: 97.6

----------
Below: a set of entries, each annotated with reported residual activity.
- System: PAK4 (human) (UniProt O96013)
- Sequence (O96013 whole entry, looked up): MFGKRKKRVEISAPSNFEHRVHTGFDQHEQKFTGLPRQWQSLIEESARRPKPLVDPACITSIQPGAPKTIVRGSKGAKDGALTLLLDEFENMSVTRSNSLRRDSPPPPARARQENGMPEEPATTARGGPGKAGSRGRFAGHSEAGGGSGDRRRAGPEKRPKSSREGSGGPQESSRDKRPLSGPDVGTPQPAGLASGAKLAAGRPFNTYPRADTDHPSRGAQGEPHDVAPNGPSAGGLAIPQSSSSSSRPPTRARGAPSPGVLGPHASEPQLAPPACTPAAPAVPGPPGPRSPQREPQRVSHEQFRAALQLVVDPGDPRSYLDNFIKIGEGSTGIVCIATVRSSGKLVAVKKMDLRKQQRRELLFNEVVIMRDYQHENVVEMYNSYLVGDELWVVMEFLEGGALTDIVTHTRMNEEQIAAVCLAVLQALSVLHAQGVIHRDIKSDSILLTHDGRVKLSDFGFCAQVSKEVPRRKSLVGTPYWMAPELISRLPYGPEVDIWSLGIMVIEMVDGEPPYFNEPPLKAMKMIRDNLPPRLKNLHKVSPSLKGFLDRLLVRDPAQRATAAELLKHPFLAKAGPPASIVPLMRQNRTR
- Experiment summary: radiometric filter-binding kinase assay, Kinase HotSpot
- Settings: compound 0.5 µM; ATP 10 µM

For orientation, consider the following solved cases.
Input line: Test system PAK4 (human) (UniProt O96013); read-out residual activity; what value for `CCN1/C(=C/C(C)=O)Sc2ccc(OC)cc21` ?
Output line: 108%

Input line: Test system PAK4 (human) (UniProt O96013); read-out residual activity; what value for `COc1cc2ncnc(Nc3ccc(F)c(Cl)c3)c2cc1OCCCN1CCOCC1` ?
Output line: 90.2%

Input line: Test system PAK4 (human) (UniProt O96013); read-out residual activity; what value for `Nc1nc(Nc2ccc(S(N)(=O)=O)cc2)nn1C(=O)c1c(F)cccc1F` ?
Output line: 90%

Input line: Test system PAK4 (human) (UniProt O96013); read-out residual activity; what value for `NC(=O)c1ccc(N(C(N)=O)c2c(F)cccc2F)nc1-c1ccc(F)cc1F` ?
Output line: 92.6%

Input line: Test system PAK4 (human) (UniProt O96013); read-out residual activity; what value for `O=c1cc(N2CCNCC2)oc2c(-c3ccccc3)cccc12` ?
Output line: 81.1%

Input line: Test system PAK4 (human) (UniProt O96013); read-out residual activity; what value for `COc1cc2nccc(Oc3ccc(NC(=S)NC(=O)c4ccccc4C)cc3)c2cc1OC` ?
Output line: 100%

Input line: Test system PAK4 (human) (UniProt O96013); read-out residual activity; what value for `O=C1Nc2ccccc2/C1=C\c1c(Cl)[nH]c2ccccc12` ?
Output line: 104%

Input line: Test system PAK4 (human) (UniProt O96013); read-out residual activity; what value for `O=C1Cc2c([nH]c3ccc([N+](=O)[O-])cc23)-c2ccccc2N1` ?
Output line: 93.9%

Continue with the molecule presented below.
Input line: Test system PAK4 (human) (UniProt O96013); read-out residual activity; what value for `O=c1cc(-c2cccc3c2Sc2ccccc2S3)oc(N2CCOCC2)c1` ?
Output line: 116%
